Test: Thermodynamic solubility assay
Format: physicochemical
Conditions: pH 7, aqueous buffer, thermodynamic from solid; phosphate buffered saline solution, room temperature, four days; read-out: pH 7 Solubility
Description: Excess solid compound was used to saturate aqueous samples of the compounds. The tubes were placed on an agitator set at 1000 rpm and remained under constant agitation for four days. Following agitation, it was confirmed that excess solids were present in all tubes. The tubes were centrifuged at 10,000 rpm for 5 minutes to remove excess solids and the supernatant was transferred to a new vial. Concentration analysis was determined by UPLC and quantified against internal standards.
solubility thermodynamic at 4 days values by entry

molecule: CCC(CC)COC(=O)[C@H](C)NP(=O)(OC[C@@]1(C#N)O[C@@H](c2ccc3c(N)ncnn23)[C@H](O)[C@@H]1O)Oc1ccccc1 (stereo partly drawn) [Compound 2, reference compound]
solubility thermodynamic at 4 days: 18 µg/mL
//
molecule: CCC(CC)COC(=O)[C@H](C)N[P@](=O)(OC[C@@]1(C#N)O[C@@H](c2ccc3c(N)ncnn23)[C@H](O)[C@@H]1O)Oc1ccccc1 [Compound 6]
solubility thermodynamic at 4 days: 16 µg/mL
//
molecule: C[C@H](N[P@](=O)(OC[C@@]1(C#N)O[C@@H](c2ccc3c(N)ncnn23)[C@H](O)[C@@H]1O)Oc1ccccc1)C(=O)OC1CCCCC1 [Formula I]
solubility thermodynamic at 4 days: 131 µg/mL
